Molecular target: E3 ubiquitin-protein ligase XIAP (Homo sapiens) (UniProt P98170)
Sequence (P98170 whole entry, looked up): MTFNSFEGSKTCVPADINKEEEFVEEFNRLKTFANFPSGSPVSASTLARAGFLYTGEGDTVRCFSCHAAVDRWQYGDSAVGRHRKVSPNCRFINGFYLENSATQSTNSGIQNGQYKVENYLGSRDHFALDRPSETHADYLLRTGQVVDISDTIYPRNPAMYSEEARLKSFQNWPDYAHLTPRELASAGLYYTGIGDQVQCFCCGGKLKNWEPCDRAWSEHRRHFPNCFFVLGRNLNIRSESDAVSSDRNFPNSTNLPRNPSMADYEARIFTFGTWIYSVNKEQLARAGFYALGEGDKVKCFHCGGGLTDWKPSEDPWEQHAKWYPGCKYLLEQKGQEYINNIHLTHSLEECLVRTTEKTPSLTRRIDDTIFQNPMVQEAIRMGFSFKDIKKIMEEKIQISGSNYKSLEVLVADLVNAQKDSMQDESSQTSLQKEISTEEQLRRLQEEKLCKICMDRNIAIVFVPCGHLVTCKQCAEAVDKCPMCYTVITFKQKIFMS
Test: small molecules binding XIAP protein – biophysical, small-molecule microarray, fluorescence 635 nm, primary screen (AID 1181);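 also: score merges 667 nm emission and signal to noise over triplicate slides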
Conditions: higher = more signal
Assay endpoint: composite z-score
Simply state the number, no unit and no words.

Below are worked cases with known answers.
- COc1ccc([Si](C)(C)[C@@H]2[C@@H](CC(=O)N3CCC[C@H]3CO)O[C@]3(C(=O)N(Cc4cccc(N5CCCCC5=O)c4)c4ccccc43)[C@H]2C)cc1: 0.0167
- C[C@]1(C(=O)O)c2ccccc2C(=O)N(Cc2cc(F)cc(C(F)(F)F)c2)[C@H]1c1ccc(CO)cc1: -0.167
- O=C1[C@@H]2[C@@H](CC(COc3ccccc3)=C([C@H](O)CCc3ccccc3)[C@@H]2CO)C(=O)N1Cc1ccccc1: 0.15
- O=C(N1CCOCC1)[C@@]1(Cc2ccccc2)COC(c2ccc(OCCCO)cc2)=N1: 0.081
- C=C(COC)/C(=C/C[C@@H](OC(C)=O)c1ccccc1OCCO)c1cnc2ccccc2c1: 0.0739
- O=C(O)[C@H](Cc1ccccc1)n1cc(C2(O)CCCCC2)nn1: -0.0668
- [N-]=[N+]=Nc1ccccc1[C@@H]1OC(c2ccc(OCCCO)cc2)=N[C@]1(Cc1ccccc1)C(=O)NCCN1CCOCC1: -0.0663
- O=C1O[C@@H](c2ccccc2)[C@@H](c2ccccc2)N2[C@@H](c3ccccc3OCCO)[C@]3(C(=O)Nc4ccc(C#CCCO)cc43)[C@@H](C(=O)NC[C@H](O)c3ccccc3)[C@H]12: -0.0669
- COCCOC(=O)N1C(=O)[C@@]2(c3cc(C#Cc4ccc(OC)cc4)ccc31)[C@H](c1ccc(OCCO)cc1)N1[C@H](c3ccccc3)[C@H](c3ccccc3)OC(=O)[C@H]1[C@@H]2C(=O)NC[C@H](O)c1ccccc1: 0.115
- COc1ccc([Si](C)(C)[C@@H]2[C@@H](CC(=O)N3Cc4ccccc4C[C@H]3CO)O[C@]3(C(=O)N(Cc4ccc(N5CCOC5=O)cc4)c4ccccc43)[C@H]2C)cc1: 0.0049

Query: Dear colleague, I am looking for the recorded composite z-score of the following compound: CC(C)OC(=O)CC(=O)CC(O)c1cccc([N+](=O)[O-])c1 (stereo not given)
Response: 0.15

Query: # composite z-score lookup, item "COCCCNC(=O)[C@@H]1c2ccccc2C(=O)N(Cc2ccc(OC(F)(F)F)cc2)[C@H]1c1ccc(CO)cc1"
Response: -0.219

Query: Which composite z-score is listed for O=C1OCCC=C[C@H]2OC34C=CCN(c5ccc6ccccc6c5)C(=O)[C@H]3N(CCO)C(=O)[C@@H]4C12 (stereo not given in full) ?
Response: -0.248

Query: Give its composite z-score value. Item: CCCCC(O)C1C=CC2C(=O)N(c3ccccc3)C(=O)C2N1Nc1ccccc1 (stereo not given)
Response: 0.366

Query: I have this compound here, CN1C(=O)C2C(C1=O)C1C=C(c3ccc(CO)cc3)C2C(C2CC2)N1C (stereo not given) , and I need its recorded composite z-score.
Response: -0.0611

Query: Quick check: composite z-score of CC(C)(C)N1CC=CC23O[C@@H]4C=CCOC(=O)[C@@H]4[C@H]2C(=O)N(CCO)[C@@H]3C1=O (stereo not given in full) ?
Response: -0.0969

Query: # get_value(readout='composite z-score', item= "Cc1ccc(S[C@]2(C(=O)NC3CC3)CC(=O)N(C(C)C)[C@@H]2c2ccc(CO)cc2I)cc1" )
Response: -0.02

Query: What does the data say about its composite z-score? Entry: "CCOC(=O)C1=CC[C@@H](c2ccc(OC)cc2)N(S(=O)(=O)c2ccc(C)cc2)[C@H]1c1ccc(C)cc1"
Response: 0.126

Query: Entry under review: "CCCCC(=C=CC[C@H](O)c1ccc(CO)o1)CCO" . Reported composite z-score?
Response: -0.0663

Query: Consider the compound shown here: "CC(C)NC(=O)[C@@H]1c2ccccc2C(=O)N(Cc2ccc(OC(F)(F)F)cc2)[C@H]1c1ccc(CO)cc1" What is its recorded composite z-score?
Response: -0.16

Query: Query (compound): "CCCC[C@H]1OB(O)C[C@H]2C1=C(COc1ccccc1)C[C@H]1C(=O)C=CC(=O)[C@H]12" ; field requested: composite z-score
Response: 0.0264

Query: Query (compound): "C=C(CCCC)/C(=C/C[C@H](OC(=O)c1ccncc1)c1cccc(OCCO)c1)c1cnc2ccccc2c1" ; field requested: composite z-score
Response: 0.291
